system: BauB (Acinetobacter baumannii, UniProt Q76HK0)
measure_name: Kd (nM)

{"smiles": "C[C@@H]1ON(CCc2c[nH]cn2)C(=O)[C@H]1NC(=O)c1cccc(O)c1O", "system": "BauB (Acinetobacter baumannii, UniProt Q76HK0)", "measure_name": "Kd", "recorded_value": 300}
